protocolDescription: Cytostatic activity against human Huh5-2 cells carrying HCV genotype 1b I389luc-ubi-neo/NS3-3'/5.1 replicon assessed as reduction in metabolic activity after 72 hrs by MTS assay
Assay type: ADME, cell-based, Huh-5-2
valueKind: CC50 at 72 h

Reported CC50 at 72 h for "CN1c2c(C(=O)Nc3ccc(NS(C)(=O)=O)cc3)nn(-c3cccc(F)c3)c2-c2ccccc2S1(=O)=O" : what is it?
> 370 µM

###

What IC50 was measured for each of the following?
protocolDescription: Inhibition of RNA-dependent RNA polymerase activity of HCV genotype 1b HC-J4 recombinant N-terminal histidine tagged C-terminal 21 aminoacids truncated NS5B polymerase after 1 hr by standard primer dependent elongation assay
Set-up: species or system Hepatitis C virus isolate HC-J4
Answers are plain numbers, in µM.

Known IC50 results, listed for orientation:
| chemSmiles | resultUnit | IC50 |
| --- | --- | --- |
| CN1c2c(C(=O)Nc3ccc(NS(C)(=O)=O)cc3)nn(-c3ccc(C(F)(F)F)cc3)c2-c2ccccc2S1(=O)=O | µM | 36.3 |
| CN1c2c(C(=O)Nc3ccc(NS(C)(=O)=O)cc3)nn(-c3cccc(Cl)c3)c2-c2ccccc2S1(=O)=O | µM | 4.3 |

Each molecule below has a recorded value; state its IC50.
1. CN1c2c(C(=O)Nc3ccc(NS(C)(=O)=O)cc3)nn(-c3cccc(C(F)(F)F)c3)c2-c2ccccc2S1(=O)=O
2. CN1c2c(C(=O)Nc3ccc(NS(C)(=O)=O)cc3)nn(C3CCCCC3)c2-c2ccccc2S1(=O)=O
3. Cc1ccc(-n2nc(C(=O)Nc3ccc(NS(C)(=O)=O)cc3)c3c2-c2ccccc2S(=O)(=O)N3C)cc1
4. Cc1cccc(-n2nc(C(=O)Nc3ccc(NS(C)(=O)=O)cc3)c3c2-c2ccccc2S(=O)(=O)N3C)c1

[23.7, 43, 14.7, 21.2]

Each molecule below has a recorded value; state its IC50.
1. CN1c2c(C(=O)Nc3ccc(NS(C)(=O)=O)cc3)nn(-c3ccc(Br)cc3)c2-c2ccccc2S1(=O)=O
2. CN1c2c(C(=O)Nc3ccc(NS(C)(=O)=O)cc3)nn(-c3ccc(F)c(F)c3)c2-c2ccccc2S1(=O)=O

1: 12.1; 2: 25.4

Reported IC50 for "Cc1ccccc1-n1nc(C(=O)Nc2ccc(NS(C)(=O)=O)cc2)c2c1-c1ccccc1S(=O)(=O)N2C" : what is it?
30.8

###

Tested on: Hepatitis C virus isolate HC-J4
protocolDescription: Inhibition of RNA-dependent RNA polymerase activity of HCV genotype 1b HC-J4 recombinant N-terminal histidine tagged C-terminal 21 aminoacids truncated NS5B polymerase at 50 uM after 1 hr by standard primer dependent elongation assay
What inhibition was measured for each of the following?

Known inhibition results, listed for orientation:
| chemSmiles | inhibition |
| --- | --- |
| CN1c2c(C(=O)Nc3ccc(NS(C)(=O)=O)cc3)n[nH]c2-c2ccccc2S1(=O)=O | < 50% |
| CN1c2c(C(=O)Nc3ccc(NS(C)(=O)=O)cc3)nn(-c3ccccc3C(F)(F)F)c2-c2ccccc2S1(=O)=O | < 50% |
| CN1c2c(C(=O)Nc3ccc(NS(C)(=O)=O)cc3)nn(-c3cccc(Br)c3)c2-c2ccccc2S1(=O)=O | > 50% |
| Cc1ccc(-n2nc(C(=O)Nc3ccc(NS(C)(=O)=O)cc3)c3c2-c2ccccc2S(=O)(=O)N3C)cc1C | < 50% |
| CN1c2c(C(=O)Nc3ccc(NS(C)(=O)=O)cc3)nn(-c3ccccc3Br)c2-c2ccccc2S1(=O)=O | > 50% |

Each compound below has a recorded value; state its inhibition.
1. COc1ccc(-n2nc(C(=O)Nc3ccc(NS(C)(=O)=O)cc3)c3c2-c2ccccc2S(=O)(=O)N3C)cc1
2. CN1c2c(C(=O)Nc3ccc(NS(C)(=O)=O)cc3)nn(-c3ccccc3Cl)c2-c2ccccc2S1(=O)=O
3. Cc1ccc(-n2nc(C(=O)Nc3ccc(NS(C)(=O)=O)cc3)c3c2-c2ccccc2S(=O)(=O)N3C)cc1Cl
4. CN1c2c(C(=O)Nc3ccc(NS(C)(=O)=O)cc3)nn(C3CCCCC3)c2-c2ccccc2S1(=O)=O
5. CN1c2c(C(=O)Nc3ccc(NS(C)(=O)=O)cc3)nn(-c3ccc(Cl)c(Cl)c3)c2-c2ccccc2S1(=O)=O
6. CN1c2c(C(=O)Nc3ccc(NS(C)(=O)=O)cc3)nn(-c3ccc(F)c(F)c3)c2-c2ccccc2S1(=O)=O
7. CN1c2c(C(=O)Nc3ccccc3)nn(-c3cccc(F)c3)c2-c2ccccc2S1(=O)=O

< 50%
> 50%
> 50%
> 50%
> 50%
> 50%
< 50%

Each compound below has a recorded value; state its inhibition.
1. Cc1cccc(-n2nc(C(=O)Nc3ccc(NS(C)(=O)=O)cc3)c3c2-c2ccccc2S(=O)(=O)N3C)c1
2. CN1c2c(C(=O)Nc3ccc(NS(C)(=O)=O)cc3)nn(-c3cccc(C(F)(F)F)c3)c2-c2ccccc2S1(=O)=O

1. > 50%
2. > 50%

###

protocolDescription: Inhibition of RNA-dependent RNA polymerase activity of HCV genotype 1b HC-J4 recombinant N-terminal histidine tagged C-terminal 21 aminoacids truncated NS5B polymerase after 1 hr by standard primer dependent elongation assay
Design: species or system Hepatitis C virus isolate HC-J4
pIC50: −log10 of the molar value.
What pIC50 was measured for each of the following?

| chemSmiles | measuredResult |
| --- | --- |
| Cc1ccc(-n2nc(C(=O)Nc3ccc(NS(C)(=O)=O)cc3)c3c2-c2ccccc2S(=O)(=O)N3C)cc1C | < 4.30 |
| CN1c2c(C(=O)Nc3ccc(NS(C)(=O)=O)cc3)nn(-c3ccccc3C(F)(F)F)c2-c2ccccc2S1(=O)=O | < 4.30 |

Now let's try a different one.
Reported pIC50 for "CN1c2c(C(=O)Nc3ccc(NS(C)(=O)=O)cc3)n[nH]c2-c2ccccc2S1(=O)=O" : what is it?
< 4.30
